Exercise: for every item that follows, state its recorded Kd.
B1: NELF-E aptamer (parent)
chain: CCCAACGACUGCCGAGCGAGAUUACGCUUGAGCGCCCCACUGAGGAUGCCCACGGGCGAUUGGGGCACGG

- Variants of: B1
- protocolSummary: HiTS-RAP
- reportedConditions: with NELF-E (Drosophila)
Write the numeric value and follow it with the unit.

Kd measured on G7U U10A = 7.85 nM

Notebook: C9G G11A , Kd read as 6.35 nM

For record A4C U29G the listed Kd is 7.86 nM

The variant listed as A52U C66U shows Kd equal to 15.1 nM

Form: variant = A8G C37U ; Kd = 10.1 nM

`G65C` has a reported Kd of 14 nM

# Kd (variant: A8U G65U ) is 8.03 nM

The recorded Kd for entry A24G A52U equals 14.2 nM

# Kd of C9G A24U = 7.67 nM

Kindly note the recorded Kd for A8U U61C , which is 71.4 nM

What the record says about U23G G30A : Kd is 4.6 nM

The value of Kd measured for the variant U22G G44U turned out to be 17.2 nM

Value of measured Kd for the entry U22G A31G : 6.63 nM

U23A U29G yielded Kd of 5.75 nM

Entry under test: U23G G62U . Its Kd was 9.09 nM

Notebook: C51U C66U , Kd read as 7.21 nM

Per the records, this variant ( U22G U23G ) has Kd equal to 6.17 nM

Looking up C13G A52G , I found its Kd recorded as 4.96 nM

What the record says about C6G G48U : Kd is 5.75 nM

Record C9U C13G , field Kd: 5.59 nM

The recorded Kd for A4G C17G is 5.57 nM

Memo: A4G U22G , reported Kd: 5.51 nM

Entry under test: U41A C66U . Its Kd was 85.7 nM

// Kd value for U10G C12A : 5.88 nM

Record summary for A15U U23G : reported Kd = 5.84 nM

So for A8U G65A , the logged Kd turned out to be 5.1 nM

What the record says about `G11C` : Kd is 6.3 nM

The variant G14U G62A showed Kd equal to 19.1 nM

The reported Kd of the variant G11U U61C was 64.3 nM

Sample G11U A21G ; Kd observed: 7.69 nM

Item: A19G A67U | Kd: 5.89 nM

Kd in this record for C13U C57U : 4.06 nM

Recorded result, A4G A67C , Kd: 5.34 nM

Measured Kd, C6G G63U : 10.8 nM

Input U10G U61G . Output Kd: 8.63 nM

Kd for C17G C50U is 15.9 nM

Kd recorded for this variant, A39U A67U , is 55 nM

The measured Kd associated with `C51A` reads 8.65 nM

Memo: U10G G30C , reported Kd: 5.8 nM

Given item C17G U23G , the value recorded as its Kd is 5.45 nM

Memo: A4U C66U , reported Kd: 5.14 nM

Quick note, Kd for U10C G55U landed at 9.22 nM

Just so you know, measured Kd for U10G A52C came out at 5.8 nM

For record G14U A19U the listed Kd is 7.38 nM

Item: U23G C57U | Kd: 5.72 nM

Item: C6A G11U | Kd: 6.57 nM

// sample C17G U29G , its Kd was 4.86 nM

Form field Kd, entry C9G U47A : 11.9 nM

Entry C17U G34A — recorded Kd = 5.49 nM

Reported Kd ( C6G G30A ) = 4.52 nM

# Kd (variant: U23G C40U ) is 135 nM

get_value(item= C9G C33U , readout=Kd) returns 5.9 nM

The variant C12G G16U showed Kd equal to 7.23 nM

Memo: C13G G42A , reported Kd: 49 nM

Consider G7U C40U . Its measured Kd is 80.4 nM

Field Kd (entry `C3G` ) reads 5.16 nM

Field Kd (entry `A5U` ) reads 5.66 nM

Please fill in: Kd reported for C12A A24G = 5.99 nM

For this variant ( U23G G62A ), measured Kd is 15.5 nM

Entry under test: C6G C35U . Its Kd was 16.8 nM

The variant listed as C6U U10G has a reported Kd of 5.57 nM

Recorded result, A21U A24G , Kd: 5 nM

Per the record, A21G U22G has Kd of 5.72 nM

Briefly, Kd measured for C6U U41G : 5.16 nM

So for G26C C27G , the logged Kd turned out to be 3.95 nM

response.value for U23G C50A (field: Kd) = 16.7 nM

For record A5G C50U the listed Kd is 21.6 nM

Field Kd (entry G7U U22C ) reads 5.8 nM

Kd reading for `G64A` : 7.74 nM

// `C27A` : Kd value = 4.28 nM

// sample C9G U41G , its Kd was 6.14 nM

For record A5U A31G the listed Kd is 7.03 nM

For reference, reported Kd for U10G A31C stands at 6.21 nM

Please fill in: Kd reported for A4G U41A = 73.6 nM

Kd reported for this variant C6G A24G : 5.79 nM

G11C C12G has a reported Kd of 5.71 nM

Briefly, Kd measured for U23G G34A : 7.56 nM

Summary for this variant, C13G C33G : Kd is 6.05 nM

# Kd (variant: G14U A43G ) is 116 nM

Briefly, Kd measured for G20U C57U : 7.84 nM

The measured Kd associated with C6U C12U reads 6.16 nM

Noted for `C33U` : its Kd reads 4.92 nM
